Entry source: the supplement of paper PMC10307832

test system: SW 1573; assay: relative viability (nuclei count vs DMSO), 5 days (fraction); higher = more cells survive; conditions: first compound 0.6325 µM
Items are presented alongside their recorded relative viability.

Examples with answers:
compound | measurement
CN1CCN(CCOc2cc(OC3CCOCC3)c3c(Nc4c(Cl)ccc5c4OCO5)ncnc3c2)CC1 [Saracatinib] + N=C(N)NC(=N)NCCc1ccccc1 [Phenformin] (partner 250 µM) | 0.313
CN1CCN(CCOc2cc(OC3CCOCC3)c3c(Nc4c(Cl)ccc5c4OCO5)ncnc3c2)CC1 [Saracatinib] + Cc1nc(NC(=O)N2CCC[C@H]2C(N)=O)sc1-c1ccnc(C(C)(C)C(F)(F)F)c1 [Alpelisib] (partner 2 µM) | 0.833
CN1CCN(CCOc2cc(OC3CCOCC3)c3c(Nc4c(Cl)ccc5c4OCO5)ncnc3c2)CC1 [Saracatinib] + CC(=O)Nc1cccc(-n2c(=O)n(C3CC3)c(=O)c3c(Nc4ccc(I)cc4F)n(C)c(=O)c(C)c32)c1 [Trametinib] (partner 0.02 µM) | 0.457

Need relative viability of Cc1csc(=NC2CCCCC2)n1/N=C/c1ccc(O)c(O)c1O [MIM1] + O=C(c1cc(Cc2n[nH]c(=O)c3ccccc23)ccc1F)N1CCN(C(=O)C2CC2)CC1 [Olaparib] (partner 8 µM) , thanks.
0.471
